molecular target: SHP2-C SH2; experiment: SH2 binding enrichment of the phosphorylated peptide, bacterial display (enrichment ratio); higher = better substrate or ligand; peptides without Tyr show the background
value_type: SH2 binding enrichment

> print(dat)
                      biosequence  observed
1  FKDGQYWIRGQ [ACSF3_Y466_R471Q]     0.688

Param readout = SH2 binding enrichment; param system = SHP2-C SH2; param query = VKPENYRRLDI [VHL_Y175] ; response: value
0.769

Request body: readout SH2 binding enrichment, system SHP2-C SH2, query FMMMRYSQNIR [SDAD1_Y656_V660I] . Return the value.
1.36

What value of SH2 binding enrichment on SHP2-C SH2 does GPRKAYELSQR [SETX_Y1297] have?
0.707

Value wanted: SH2 binding enrichment (SHP2-C SH2) of entry DAKTIYDFTDT [PDK1_Y136_A134T]
0.58

Tell me reported SH2 binding enrichment for SSSGAYGGGYG [KRT19_Y61] , tested with SHP2-C SH2.
0.639

# query: SH2 binding enrichment | item TISPYYRQSLF [CRYAA_Y48] | system: SHP2-C SH2;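 note: peptide library displayed on the E. coli surface as eCPX fusions, selected cells deep-sequenced, score is each peptide's frequency after selection divided by its frequency in the input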
0.767

Hello, I am looking for reported SH2 binding enrichment with SHP2-C SH2 for VKPRRYRPGTV [H3-5_Y41_H39R] . Could you help?
0.514

Quick check: SH2 binding enrichment on SHP2-C SH2, item QNVADYMRFLM [RPL5_Y207_YF] ?
0.842

Under SHP2-C SH2: SH2 binding enrichment value of TKVTFYKQPMF [GBA_Y451_D448V] ?
0.737

Give recorded SH2 binding enrichment with SHP2-C SH2 for the following sequence: TLLERYGMTKI [ACSF3_Y355_E359K]
0.636

Source of measurements: the supplement of paper PMC10065799
